Biological target: T1, recombinant extracellular domain protein of human DLL3 (h.DLL3-ECD-His) (human, UniProt Q9NYJ7 27-492)
T1 construct: extracellular domain; Commercial protein; also called human DLL3 antigen; not shown: His tag
T1 sequence (looked up): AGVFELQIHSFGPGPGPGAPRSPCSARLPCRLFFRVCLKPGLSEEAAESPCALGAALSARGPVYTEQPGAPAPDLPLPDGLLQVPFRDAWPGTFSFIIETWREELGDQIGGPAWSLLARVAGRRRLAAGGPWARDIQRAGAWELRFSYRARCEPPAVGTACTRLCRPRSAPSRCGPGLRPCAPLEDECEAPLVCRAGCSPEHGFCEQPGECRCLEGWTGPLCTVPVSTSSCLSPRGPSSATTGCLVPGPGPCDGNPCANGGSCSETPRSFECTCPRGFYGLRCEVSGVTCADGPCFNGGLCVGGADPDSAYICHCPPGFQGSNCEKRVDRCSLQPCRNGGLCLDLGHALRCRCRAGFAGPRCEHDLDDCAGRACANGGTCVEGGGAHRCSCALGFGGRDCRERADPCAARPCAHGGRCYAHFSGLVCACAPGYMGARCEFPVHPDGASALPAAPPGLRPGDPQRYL
Assay: ELISA, coated h.DLL3-ECD-his 0.2 µg/mL, antibody titrated
ASSAY_ENDPOINT: EC50 (ng/mL)
Quick reminder: number only, in ng/mL, skip the unit.

A selection of reference data follows.
59B10D3-Hz antibody (antibody, human IgG1, kappa, V domains shown, Humanized; also called 59B10D3-hz1) VH: EVQLVESGGGLVQPGGSLRLSCAASGFTFSDAWMDWVRQAPGKGLEWVAEIRNKANNHATYYVDSVKGRFTISRDDAKNSVYLQMNSLRAEDTAVYYCTRNNYGSTWTYYAMDYWGQGTLVTVSS VL: DIQMTQSPSSLSASVGDRVTITCRASQDISNYLNWYQQKPGKAVKLLIYYTSRLHSGVPSRFSGSGSGTDYTLTISSLQPEDFATYYCQQGYTLPLTFGQGTKVEIKR: 5.2
55C11E4-Hz1 (antibody, human IgG1, kappa, V domains shown, Humanized IgG1/kappa) VH: EVQLVQSGAEVKKPGASVKVSCKASGYTFTDYYMNWVRQAPGQRLEWMGVINPYNGGTNYSQKFQGRVTLTVDKSASTAYMELSSLRSEDTAVYYCARDSNYVGLLDYWGQGTLVTVSS VL: DIVLTQSPATLSLSPGERATLSCRASQSISNNLHWYQQKPGQAPRLLIKYASQSISGIPARFSGSGSGPDFTLTISSLEPEDFAVYFCQQSNSWPYTFGQGTKVEIKR: 3.9

# input for lookup
Requested read-out: EC50. Entry: 10F2F3-Hz antibody (antibody, human IgG1, kappa, V domains shown, Humanized) VH: QVQLVESGAEVKKPGSSVKVSCKASGYAFSSHWVNWVRQAPGQGLEWMGQIYPGNGDTNYAQKFQGRVTLTADKSTSTAYMELSSLTSEDTAVYFCARWFAYWGQGTLVTVSS VL: DIQMTQSPSSLSASVGDRVTITCKSSQSLLDGGNQKNYLAWYQQKPGKPPKLLVYFASIRESGVPSRFSGSGSGTDFTLTISSLQPEDFATYYCQQHYNTPWTFGQGTKVEIKR
3.4
